PROPERTY MEASURED: AC50

Ask: For the record CN(C)CCOC(=O)C(c1ccccc1)C1(O)CCCC1 (stereo not given) [CYCLOPENTOLATE] , what value of AC50 is listed for B2 bradykinin receptor (Homo sapiens)?
Reply: > 10 µM

Ask: For the record Cc1nnc2n1-c1ccc(Cl)cc1C(c1ccccc1)=NC2 [ALPRAZOLAM] , what value of AC50 is listed for B2 bradykinin receptor (Homo sapiens)?
Reply: > 30 µM

Ask: For the record Nc1ccc(S(=O)(=O)Nc2ncccn2)cc1 [SULFADIAZINE] , what value of AC50 is listed for B2 bradykinin receptor (Homo sapiens)?
Reply: > 10 µM

Ask: For the record COc1cc(N)cn[n+]1-c1ccccc1 [AMEZINIUM METILSULFATE] , what value of AC50 is listed for B2 bradykinin receptor (Homo sapiens)?
Reply: > 30 µM

Ask: For the record CS(=O)(=O)NC(=O)CCC/C=C\C[C@H]1C(=O)C[C@@H](O)[C@@H]1/C=C/[C@@H](O)COc1ccccc1 [SULPROSTONE] , what value of AC50 is listed for B2 bradykinin receptor (Homo sapiens)?
Reply: > 30 µM

Ask: For the record CN(C)CCC=C1c2ccccc2CCc2ccccc21 [AMITRIPTYLINE] , what value of AC50 is listed for B2 bradykinin receptor (Homo sapiens)?
Reply: > 30 µM

Ask: For the record NS(=O)(=O)c1ccc(N2CCCCS2(=O)=O)cc1 , what value of AC50 is listed for B2 bradykinin receptor (Homo sapiens)?
Reply: > 30 µM

Ask: For the record CCCCOC(=O)c1ccc(N)cc1 [BUTAMBEN] , what value of AC50 is listed for B2 bradykinin receptor (Homo sapiens)?
Reply: > 30 µM

Ask: For the record CCCO[C@H]1[C@@H]([C@@H](COCc2ccc(Cl)cc2)OCc2ccc(Cl)cc2)OC(OCC)[C@@H]1O (stereo not given in full) [CLOBENOSIDE] , what value of AC50 is listed for B2 bradykinin receptor (Homo sapiens)?
Reply: > 30 µM

Ask: For the record CCOC(=O)[C@H](CCc1ccccc1)N[C@@H](C)C(=O)N1Cc2ccccc2C[C@H]1C(=O)O , what value of AC50 is listed for B2 bradykinin receptor (Homo sapiens)?
Reply: > 30 µM

Ask: For the record CN1CCC(=C2c3ccccc3CC(=O)c3sccc32)CC1 [KETOTIFEN] , what value of AC50 is listed for B2 bradykinin receptor (Homo sapiens)?
Reply: > 10 µM

Ask: For the record O=c1[nH]cc(F)c(=O)[nH]1 [FLUOROURACIL] , what value of AC50 is listed for B2 bradykinin receptor (Homo sapiens)?
Reply: > 30 µM

Ask: For the record CCC1(CC)C(=O)NC(=O)N(C)C1=O [METHARBITAL] , what value of AC50 is listed for B2 bradykinin receptor (Homo sapiens)?
Reply: > 10 µM

Ask: For the record Nc1nc(Cl)nc2c1ncn2[C@@H]1O[C@H](CO)[C@@H](O)[C@@H]1F [CLOFARABINE] , what value of AC50 is listed for B2 bradykinin receptor (Homo sapiens)?
Reply: > 30 µM

Ask: For the record CC(C)NCC(O)COc1ccc(CC(N)=O)cc1 (stereo not given) [ATENOLOL] , what value of AC50 is listed for B2 bradykinin receptor (Homo sapiens)?
Reply: > 30 µM

Ask: For the record CC1=C(CC(=O)O)c2cc(F)ccc2/C1=C\c1ccc([S+](C)[O-])cc1 (stereo not given) , what value of AC50 is listed for B2 bradykinin receptor (Homo sapiens)?
Reply: > 30 µM

Ask: For the record CCCCC[C@H](O)CC[C@@H]1[C@H]2Cc3cccc(OCC(=O)O)c3C[C@H]2C[C@H]1O [TREPROSTINIL] , what value of AC50 is listed for B2 bradykinin receptor (Homo sapiens)?
Reply: > 30 µM

Ask: For the record CN(C)CCc1c[nH]c2ccc(CS(=O)(=O)N3CCCC3)cc12 [ALMOTRIPTAN] , what value of AC50 is listed for B2 bradykinin receptor (Homo sapiens)?
Reply: > 30 µM

Ask: For the record OCC(O)COc1ccc(Cl)cc1 (stereo not given) , what value of AC50 is listed for B2 bradykinin receptor (Homo sapiens)?
Reply: > 10 µM

Ask: For the record CCC(=O)c1ccc2c(c1)N(CC(C)N(C)C)c1ccccc1S2 (stereo not given) [PROPIOMAZINE] , what value of AC50 is listed for B2 bradykinin receptor (Homo sapiens)?
Reply: > 10 µM

* * *

# TEST SYSTEM: D(1A) dopamine receptor (Homo sapiens); further: assay procedure not described here
# Sequence (P21728 whole entry): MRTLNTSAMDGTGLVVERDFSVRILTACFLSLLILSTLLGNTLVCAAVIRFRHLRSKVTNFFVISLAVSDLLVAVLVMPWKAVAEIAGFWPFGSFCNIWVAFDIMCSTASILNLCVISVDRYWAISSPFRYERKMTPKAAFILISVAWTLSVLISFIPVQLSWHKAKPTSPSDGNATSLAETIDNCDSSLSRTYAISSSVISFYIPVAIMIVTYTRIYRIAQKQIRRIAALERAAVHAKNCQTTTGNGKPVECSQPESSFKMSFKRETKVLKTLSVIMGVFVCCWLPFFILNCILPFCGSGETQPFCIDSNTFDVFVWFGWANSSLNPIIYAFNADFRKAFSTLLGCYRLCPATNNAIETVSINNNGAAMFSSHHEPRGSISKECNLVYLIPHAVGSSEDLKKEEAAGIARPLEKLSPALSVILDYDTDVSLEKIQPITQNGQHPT
# Assay type: functional, cell-based
PROPERTY MEASURED: AC50

Ask: Name the recorded AC50 for COc1cc(C(=O)NCc2ccc(OCCN(C)C)cc2)cc(OC)c1OC [TRIMETHOBENZAMIDE] .
Reply: > 30 µM

Ask: Name the recorded AC50 for C[C@H](Nc1ncnc2[nH]cnc12)c1cc2cccc(Cl)c2c(=O)n1-c1ccccc1 [DUVELISIB] .
Reply: > 30 µM

Ask: Name the recorded AC50 for CC(NC(C)(C)C)C(=O)c1cccc(Cl)c1 (stereo not drawn) [BUPROPION] .
Reply: > 10 µM

Ask: Name the recorded AC50 for CS(=O)(=O)Nc1ccc([N+](=O)[O-])cc1Oc1ccccc1 [NIMESULIDE] .
Reply: > 30 µM

Ask: Name the recorded AC50 for CO/N=C(\C(=O)N[C@@H]1C(=O)N2C(C(=O)O)=C(CSc3nc(C)c(CC(=O)O)s3)CS[C@H]12)c1csc(N)n1 [CEFODIZIME] .
Reply: > 30 µM

Ask: Name the recorded AC50 for CC(=O)OCC(=O)[C@@]1(O)CC[C@H]2[C@@H]3CCC4=CC(=O)CC[C@]4(C)[C@@]3(F)[C@@H](O)C[C@@]21C [FLUDROCORTISONE ACETATE] .
Reply: > 30 µM

Ask: Name the recorded AC50 for Cc1ccc(-c2ncc(Cl)cc2-c2ccc(S(C)(=O)=O)cc2)cn1 [ETORICOXIB] .
Reply: > 10 µM

Ask: Name the recorded AC50 for C[C@@H](Cc1ccccc1)N(C)Cc1ccccc1 [BENZPHETAMINE] .
Reply: > 10 µM

* * *

I'd appreciate it if you could supply AC50 values for the items below.

Ask: For the record CC(O)(CC(=O)O)CC(=O)O [MEGLUTOL] , what value of AC50 is listed for Alpha-2A adrenergic receptor (Homo sapiens, UniProt P08913)?
Reply: > 30 µM

Ask: For the record CCOC(=O)[C@H](CCc1ccccc1)N[C@@H](C)C(=O)N1Cc2ccccc2C[C@H]1C(=O)O , what value of AC50 is listed for Alpha-2A adrenergic receptor (Homo sapiens, UniProt P08913)?
Reply: > 30 µM

Ask: For the record CC(NCCC(c1ccccc1)c1ccccc1)c1ccccc1 (stereo not given) [FENDILINE] , what value of AC50 is listed for Alpha-2A adrenergic receptor (Homo sapiens, UniProt P08913)?
Reply: 5.89 µM

Ask: For the record Cc1ccc(C(C)C)c(O)c1 [THYMOL] , what value of AC50 is listed for Alpha-2A adrenergic receptor (Homo sapiens, UniProt P08913)?
Reply: > 30 µM

Ask: For the record CS(=O)(=O)Nc1ccc([N+](=O)[O-])cc1Oc1ccccc1 [NIMESULIDE] , what value of AC50 is listed for Alpha-2A adrenergic receptor (Homo sapiens, UniProt P08913)?
Reply: > 30 µM

* * *

I'd appreciate it if you could supply AC50 values for the items below.
# TEST SYSTEM: UniProt:P08908
# Sequence (P08908 whole entry): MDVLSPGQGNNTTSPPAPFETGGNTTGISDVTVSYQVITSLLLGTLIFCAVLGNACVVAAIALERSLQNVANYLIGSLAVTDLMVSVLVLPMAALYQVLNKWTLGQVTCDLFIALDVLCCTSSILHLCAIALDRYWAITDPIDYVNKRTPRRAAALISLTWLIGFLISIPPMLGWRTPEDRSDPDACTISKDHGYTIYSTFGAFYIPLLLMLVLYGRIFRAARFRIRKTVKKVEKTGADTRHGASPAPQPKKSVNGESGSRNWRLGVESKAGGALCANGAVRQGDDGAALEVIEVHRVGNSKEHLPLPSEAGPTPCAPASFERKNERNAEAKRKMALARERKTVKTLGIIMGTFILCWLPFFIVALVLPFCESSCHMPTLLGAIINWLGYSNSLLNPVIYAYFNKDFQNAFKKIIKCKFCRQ
# Assay type: functional, cell-based

Ask: Name the recorded AC50 for CC(C)CN(C[C@@H](O)[C@H](Cc1ccccc1)NC(=O)O[C@H]1CCOC1)S(=O)(=O)c1ccc(N)cc1 .
Reply: > 10 µM

Ask: Name the recorded AC50 for CCN(CC)CCn1c(=O)c(Cc2ccc(OC)cc2)nc2ccccc21 [CAROVERINE] .
Reply: > 30 µM

Ask: Name the recorded AC50 for N=C(N)NC(=O)c1nc(Cl)c(N)nc1N [AMILORIDE] .
Reply: > 30 µM

Ask: Name the recorded AC50 for CC(=O)SCC(Cc1ccccc1)C(=O)NCC(=O)OCc1ccccc1 (stereo not given) [RACECADOTRIL] .
Reply: > 30 µM

Ask: Name the recorded AC50 for CC[N+](CC)(CCNC(=O)C(=O)NCC[N+](CC)(CC)Cc1ccccc1Cl)Cc1ccccc1Cl [AMBENONIUM] .
Reply: > 30 µM

* * *

Observed AC50 values for Adenosine receptor A2a (Homo sapiens, UniProt P29274) are listed in what follows.

Ask: For the record O=C(O[C@H]1C[N+]2(CCCOc3ccccc3)CCC1CC2)C(O)(c1cccs1)c1cccs1 [ACLIDINIUM BROMIDE] , what value of AC50 is listed for Adenosine receptor A2a (Homo sapiens, UniProt P29274)?
Reply: > 30 µM

Ask: For the record CS(=O)(=O)Nc1ccc([N+](=O)[O-])cc1Oc1ccccc1 [NIMESULIDE] , what value of AC50 is listed for Adenosine receptor A2a (Homo sapiens, UniProt P29274)?
Reply: 20 µM

Ask: For the record CC(C)(Oc1ccc(Cl)cc1)C(=O)OCCOC(=O)c1cccnc1 [ETOFIBRATE] , what value of AC50 is listed for Adenosine receptor A2a (Homo sapiens, UniProt P29274)?
Reply: > 30 µM

Ask: For the record NCCCNCCSP(=O)(O)O , what value of AC50 is listed for Adenosine receptor A2a (Homo sapiens, UniProt P29274)?
Reply: > 30 µM

Ask: For the record COc1cccc2c1C(=O)c1c(O)c3c(c(O)c1C2=O)C[C@@](O)(C(=O)CO)C[C@@H]3O[C@H]1C[C@H](N)[C@H](O)[C@H](C)O1 , what value of AC50 is listed for Adenosine receptor A2a (Homo sapiens, UniProt P29274)?
Reply: > 30 µM

Ask: For the record CC[N+](CC)(CCNC(=O)C(=O)NCC[N+](CC)(CC)Cc1ccccc1Cl)Cc1ccccc1Cl , what value of AC50 is listed for Adenosine receptor A2a (Homo sapiens, UniProt P29274)?
Reply: > 30 µM

Ask: For the record CC(C)/N=c1\cc2n(-c3ccc(Cl)cc3)c3ccccc3nc-2cc1Nc1ccc(Cl)cc1 , what value of AC50 is listed for Adenosine receptor A2a (Homo sapiens, UniProt P29274)?
Reply: > 30 µM

Ask: For the record CCC1(C)CC(=O)NC1=O (stereo not drawn) [ETHOSUXIMIDE] , what value of AC50 is listed for Adenosine receptor A2a (Homo sapiens, UniProt P29274)?
Reply: > 10 µM
